Tested on: larva of the mustard beetle (Phaedon cochleariae)
Assay: Phaedon test (PHAECO spray treatment)
Format: in vivo
Conditions: application rate 500 g/ha, Chinese cabbage leaf discs, after 7 days
Entries and their measured efficacy (effect in %, beetle larva killed) follow.
reported-metric: efficacy (effect in %, beetle larva killed) (%)

- CON1CCC2(CC1)NC(=O)C(c1c(C)ccc(-c3ccc(F)cc3)c1C)=C2O: 83
- CCON1CCC2(CC1)NC(=O)C(c1c(CC)ccc(-c3ccc(F)cc3)c1C)=C2O: 100
- CCON1CCC2(CC1)NC(=O)C(c1cc(-c3ccc(F)cc3)ccc1Cl)=C2O: 100
- CCON1CCC2(CC1)NC(=O)C(c1c(C)ccc(-c3ccc(F)cc3)c1C)=C2O: 100
- CCc1ccc(-c2ccc(F)cc2)c(C)c1C1=C(O)C2(CCN(OC)CC2)NC1=O: 100
